Tested on: SN12C
Test Summary: NCI tumour cell line growth inhibition, 48 h
Calls of active or inactive are those of the source. Cut-off read from the data, not from the text of the source: active = GI50 up to about 1.1 µM and inactive = higher.
Labels: active, inactive

INSERT INTO results (molecule, qualitative_label) VALUES
  ('ClCCN1CCC2(CC1)SSC1(CCN(CCCl)CC1)S2', 'inactive'),
  ('c1ccc(COc2ccc(C[P+](c3ccccc3)(c3ccccc3)c3ccccc3)cc2)cc1', 'active'),
  ('CN1CCc2cc(N)cc3c2C1Cc1ccc(O)c(O)c1-3 (stereo unspecified)', 'inactive'),
  ('CN(C=O)/C=C/c1cc(O)ccc1O', 'inactive'),
  ('CN1CCN(c2n[nH]c(=O)c3c2nnn3Cc2ccccc2)CC1', 'inactive'),
  ('CC(C(=O)OCc1ccccc1)(c1ccco1)N1C(=O)OC(c2ccccc2)C1c1ccccc1 (stereo unspecified)', 'inactive');
